Source listed as PubChem BioAssay AID256.

Catalogue of T/C values
Test system: CD2F1 mice, L1210 leukemia ip, survival T/C
protocol.details: NCI In Vivo Anticancer Drug Screen. Data for tumor model L1210 Leukemia (intraperitoneal) in CD2F1 (CDF1) mice
assay.setup: endpoint: mean survival time; dose: 100.0 mg/kg/injection; schedule: Q01DX005 (ip); vehicle: water; higher = longer survival
Toxic doses and inconclusive results are not listed.
assay.readout: T/C

| molecule | assay.readout | measured.value |
| --- | --- | --- |
| N=c1c2ccn(C3OC(CO)C(O)C3O)c2ncn1N (centres undefined) | T/C | 94 % of control |
| Cc1nc(C(=O)O)c(C)c(=O)[nH]1 | T/C | 89 % of control |
| Nc1ncnc2cc3ncn(C4OC(CO)C(O)C4O)c3cc12 (centres undefined) | T/C | 100 % of control |
| NC(=O)c1n[nH]c(C2OC(COP(=O)(O)O)C(O)C2O)n1 (centres undefined) | T/C | 97 % of control |

====

Tested on: CD2F1 mice, L1210 leukemia ip, survival T/C
protocol.details: NCI In Vivo Anticancer Drug Screen. Data for tumor model L1210 Leukemia (intraperitoneal) in CD2F1 (CDF1) mice
assay.setup: endpoint: mean survival time; dose: 50.0 mg/kg/injection; schedule: Q01DX009 (ip); vehicle: Klucel (hydroxypropylcellulose) (HPC); higher = longer survival
Inconclusive results and toxic doses are left out.

| compound | T/C |
| --- | --- |
| O=C1c2ccccc2C(=O)N1Cc1cc([N+](=O)[O-])ccc1Cl | 92 % of control |
| O=S(=O)(N/N=C/c1ccccc1)c1ccccc1 | 90 % of control |
| CCOC(=O)C1(C(=O)OCC)CCC(O)N1C(=O)c1cc2c(cc1[N+](=O)[O-])OCO2 (configuration not stated) | 97 % of control |
| C/C(=N\O)c1ccccn1 | 100 % of control |
| CC(=O)NC(C)(NC(C)=O)C(=O)O | 95 % of control |
| CC(=O)CC(C)(C)C1CCCCC1 | 93 % of control |
| N#CC1CNC(N)NC1N (configuration not stated) | 98 % of control |
| OC(c1ccccc1Cl)C(Cl)(Cl)Cl (configuration not stated) | 96 % of control |
| CC(Cl)CN(CC(C)Cl)c1ccc(N=Nc2ccccc2)cc1 (configuration not stated) | 100 % of control |
| COc1c2c(c(OC)c3c1C(=O)c1ccccc1C3=O)CC(O)CC2 (configuration not stated) | 92 % of control |
| O=C(O)/C=C\c1ccc(OC(=O)c2ccccc2)cc1 | 96 % of control |
| COc1ccc2nc3cc(Cl)ccc3c(NCCNCCNCCNc3c4ccc(Cl)cc4nc4ccc(OC)cc34)c2c1 | 90 % of control |

====

Catalogue of T/C values
Test system: CD2F1 mice, L1210 leukemia ip, survival T/C
protocol.details: NCI In Vivo Anticancer Drug Screen. Data for tumor model L1210 Leukemia (intraperitoneal) in CD2F1 (CDF1) mice
assay.setup: endpoint: mean survival time; dose: 200.0 mg/kg/injection; schedule: Q01DX009 (ip); vehicle: saline; higher = longer survival
Toxic doses and inconclusive results are not listed.

| molecule | study.target | T/C |
| --- | --- | --- |
| Cc1cc(O)c(N=Nc2cccc(C(=O)O)c2)cc1C | CD2F1 mice, L1210 leukemia ip, survival T/C | 103 % of control |
| COC1OCC(O)C(O)C1O (centres undefined) | CD2F1 mice, L1210 leukemia ip, survival T/C | 98 % of control |
| CNC(C)COc1ccc(O)cc1 (centres undefined) | CD2F1 mice, L1210 leukemia ip, survival T/C | 110 % of control |
| CCCN(CCC)CC(C)O (centres undefined) | CD2F1 mice, L1210 leukemia ip, survival T/C | 97 % of control |
